Listed here are compounds together with their documented IC50 PI3Ka.
Assay Target: PI3Kalpha (Homo sapiens (Human), UniProt P42336)
Sequence (P42336 whole entry, species assumed): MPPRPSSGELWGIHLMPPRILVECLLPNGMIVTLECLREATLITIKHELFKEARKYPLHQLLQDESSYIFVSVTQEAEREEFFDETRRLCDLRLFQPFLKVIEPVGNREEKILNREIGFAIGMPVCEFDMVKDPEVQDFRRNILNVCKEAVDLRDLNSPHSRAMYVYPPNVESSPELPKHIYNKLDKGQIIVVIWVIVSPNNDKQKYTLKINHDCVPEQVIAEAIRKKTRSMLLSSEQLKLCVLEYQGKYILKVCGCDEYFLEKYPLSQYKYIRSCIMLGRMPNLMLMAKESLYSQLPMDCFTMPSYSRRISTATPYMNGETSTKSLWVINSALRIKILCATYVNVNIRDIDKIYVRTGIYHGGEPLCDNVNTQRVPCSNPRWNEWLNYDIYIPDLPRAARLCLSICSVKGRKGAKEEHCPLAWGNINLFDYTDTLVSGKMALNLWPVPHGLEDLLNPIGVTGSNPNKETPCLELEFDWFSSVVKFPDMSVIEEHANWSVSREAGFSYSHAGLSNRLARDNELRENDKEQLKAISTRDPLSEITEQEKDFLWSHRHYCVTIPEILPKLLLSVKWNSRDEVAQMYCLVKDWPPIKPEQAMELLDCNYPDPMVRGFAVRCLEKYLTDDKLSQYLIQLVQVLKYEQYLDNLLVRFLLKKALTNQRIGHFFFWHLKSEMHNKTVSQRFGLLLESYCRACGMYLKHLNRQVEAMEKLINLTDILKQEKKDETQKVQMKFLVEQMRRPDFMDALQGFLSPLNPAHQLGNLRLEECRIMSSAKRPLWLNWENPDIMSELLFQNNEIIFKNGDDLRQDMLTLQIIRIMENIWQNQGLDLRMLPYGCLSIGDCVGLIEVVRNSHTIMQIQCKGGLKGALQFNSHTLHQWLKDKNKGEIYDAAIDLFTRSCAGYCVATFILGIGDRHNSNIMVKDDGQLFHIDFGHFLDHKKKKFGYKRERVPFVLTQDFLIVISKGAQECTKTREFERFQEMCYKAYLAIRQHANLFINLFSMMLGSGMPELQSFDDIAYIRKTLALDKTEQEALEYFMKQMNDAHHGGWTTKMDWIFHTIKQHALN
Sequence (P27986 whole entry partner, species assumed): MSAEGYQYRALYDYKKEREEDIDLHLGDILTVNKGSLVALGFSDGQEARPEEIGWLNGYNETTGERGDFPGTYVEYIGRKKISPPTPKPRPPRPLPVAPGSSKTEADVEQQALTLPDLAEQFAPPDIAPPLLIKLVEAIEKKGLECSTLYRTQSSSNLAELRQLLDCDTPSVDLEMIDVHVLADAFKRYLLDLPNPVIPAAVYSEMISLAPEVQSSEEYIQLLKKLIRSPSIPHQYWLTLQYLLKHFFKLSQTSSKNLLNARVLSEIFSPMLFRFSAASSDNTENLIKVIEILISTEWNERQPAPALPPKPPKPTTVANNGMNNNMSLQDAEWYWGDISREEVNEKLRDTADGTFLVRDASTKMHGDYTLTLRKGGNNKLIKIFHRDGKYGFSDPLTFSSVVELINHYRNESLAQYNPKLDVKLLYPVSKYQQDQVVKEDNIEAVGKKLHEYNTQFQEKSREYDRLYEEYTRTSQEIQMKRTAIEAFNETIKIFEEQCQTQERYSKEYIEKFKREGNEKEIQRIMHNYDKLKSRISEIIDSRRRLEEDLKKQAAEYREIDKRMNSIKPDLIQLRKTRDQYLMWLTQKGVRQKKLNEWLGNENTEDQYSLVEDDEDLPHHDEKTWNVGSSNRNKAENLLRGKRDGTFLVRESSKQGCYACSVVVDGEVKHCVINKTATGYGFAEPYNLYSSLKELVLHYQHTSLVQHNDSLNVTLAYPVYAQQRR
Experiment: Inhibition of PI3Kalpha-induced PIP-2 phosphorylation (filter-binding assay)
Format: biochemical
Experimental Context: 33P-ATP
Your answer should be a plain number; it is taken to be in nM.

Past entries and their recorded results:
Smiles Input	Value Unit	IC50 PI3Ka
CCc1ncnc(N2CCC3(CCN(C(=O)COC)CC3)CC2)c1C#Cc1ccc(N)nc1	nM	37
CCc1ncnc(N2CCN(C3CCOCC3)CC2)c1C#Cc1ccc(N)nc1	nM	141
CCc1ncnc(N2CCN(C(=O)N3CCOCC3)CC2)c1C#Cc1ccc(N)nc1	nM	116
CCc1ncnc(N2CCN(C(=O)C3CC3)CC2)c1C#Cc1ccc(N)nc1	nM	46

Query string: Need IC50 PI3Ka of CCc1ncnc(N2CCN(C)CC2)c1C#Cc1ccc(N)nc1 , thanks.
Result string: 1551

Query string: Field request: IC50 PI3Ka | item: Cc1ncnc(N2CCC(O)(C(C)C)CC2)c1C#Cc1ccc(N)nc1
Result string: 51

Query string: Return reported IC50 PI3Ka; argument: CCc1ncnc(N2CCN(c3ncccn3)CC2)c1C#Cc1ccc(N)nc1
Result string: 48

Query string: Bench note: what IC50 PI3Ka did CCc1ncnc(N2CCC(OC)CC2)c1C#Cc1ccc(C)nc1 show?
Result string: 183

Query string: Bench note: what IC50 PI3Ka did CCc1ncnc(N2CCC(OC)CC2)c1C#Cc1ccc(N)nc1 show?
Result string: 58

Query string: Need IC50 PI3Ka of CCc1ncnc(N2CCN(CCCS(C)(=O)=O)CC2)c1C#Cc1ccc(N)nc1 , thanks.
Result string: 108

Query string: Look up IC50 PI3Ka: CCc1ncnc(N2CCOCC2)c1C#Cc1ccc(N)nc1
Result string: 46

* * *

Assay Target: mTOR (Homo sapiens (Human))
Sequence (P42345 1360-2549): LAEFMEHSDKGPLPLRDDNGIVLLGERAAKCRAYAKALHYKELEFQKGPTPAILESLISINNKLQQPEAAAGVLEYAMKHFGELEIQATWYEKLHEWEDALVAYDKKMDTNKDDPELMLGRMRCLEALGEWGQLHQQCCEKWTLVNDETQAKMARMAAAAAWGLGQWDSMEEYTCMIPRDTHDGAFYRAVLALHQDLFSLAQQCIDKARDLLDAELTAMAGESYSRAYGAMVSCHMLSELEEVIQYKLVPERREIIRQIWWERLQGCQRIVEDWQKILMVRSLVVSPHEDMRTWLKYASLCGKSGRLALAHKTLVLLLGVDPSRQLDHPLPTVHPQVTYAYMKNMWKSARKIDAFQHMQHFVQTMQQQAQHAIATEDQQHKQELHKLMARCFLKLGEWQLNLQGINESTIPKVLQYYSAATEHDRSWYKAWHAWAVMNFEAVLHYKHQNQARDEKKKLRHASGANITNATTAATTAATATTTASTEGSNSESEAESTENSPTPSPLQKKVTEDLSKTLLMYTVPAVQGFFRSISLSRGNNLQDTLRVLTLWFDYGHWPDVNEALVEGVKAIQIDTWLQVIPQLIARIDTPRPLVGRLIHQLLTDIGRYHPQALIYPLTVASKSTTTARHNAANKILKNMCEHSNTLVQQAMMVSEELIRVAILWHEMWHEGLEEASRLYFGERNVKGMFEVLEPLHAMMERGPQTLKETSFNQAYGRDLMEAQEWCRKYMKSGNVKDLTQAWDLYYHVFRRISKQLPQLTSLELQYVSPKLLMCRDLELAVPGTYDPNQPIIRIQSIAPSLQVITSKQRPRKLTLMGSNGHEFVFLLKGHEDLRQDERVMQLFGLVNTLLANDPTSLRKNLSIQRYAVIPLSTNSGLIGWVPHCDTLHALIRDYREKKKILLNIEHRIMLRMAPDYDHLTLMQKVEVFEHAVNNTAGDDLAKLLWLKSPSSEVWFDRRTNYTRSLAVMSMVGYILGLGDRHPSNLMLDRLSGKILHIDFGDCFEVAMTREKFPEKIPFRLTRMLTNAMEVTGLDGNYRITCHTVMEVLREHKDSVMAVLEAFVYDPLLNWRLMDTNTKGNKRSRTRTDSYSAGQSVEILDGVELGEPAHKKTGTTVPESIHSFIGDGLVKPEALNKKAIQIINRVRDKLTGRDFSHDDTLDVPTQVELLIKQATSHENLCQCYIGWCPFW
Assay Endpoint: IC50 (nM)
Return type: number; implicit unit nM.

Molecule	IC50 (nM)
CCc1ncnc(N2CCC(O)CC2)c1C#Cc1ccc(N)nc1 [Example B-48]	14
CCc1ncnc(N2CCC(O)(c3ccccc3)CC2)c1C#Cc1ccc(N)nc1 [Example B-16]	7
CCc1ncnc(N2CCC(C(F)(F)F)CC2)c1C#Cc1ccc(N)nc1 [Example B-41]	9

Note: attention shifts to another entry.
Query string: Query for mTOR (Homo sapiens (Human)): what IC50 does the record show for CCc1ncnc(N2CCC(O)(Cc3ccccc3)CC2)c1C#Cc1ccc(N)nc1 [Example B-17] ?
Result string: 74

* * *

Assay Target: PI3Kalpha (Homo sapiens (Human))
Experiment: Inhibition of PI3Kalpha-induced PIP-2 phosphorylation (filter-binding assay)
Type: biochemical
Experimental Context: 33P-ATP
Protocol: Inhibition of PI3Kalpha-Induced PIP-2 Phosphorylation Method Type: Filter-Binding-Assay Aliquoted in desired amounts and stored at −80° C. Final assay concentration 25 ng/well.
Label key: criterion met means IC50 PI3Ka under 100 nM; criterion not met means IC50 PI3Ka of 100 nM or more.

# count of solved cases: 3
Smiles Input	Assay Target	Label Value
CCc1ncnc(N2CCC(C(F)(F)F)CC2)c1C#Cc1ccc(N)nc1	PI3Kalpha (Homo sapiens (Human))	criterion not met
CCc1ncnc(N2CCn3c(C)cnc3C2)c1C#Cc1ccc(N)nc1	PI3Kalpha (Homo sapiens (Human))	criterion met
CCNC(=O)CC1CCN(c2ncnc(C)c2C#Cc2ccc(N)nc2)CC1	PI3Kalpha (Homo sapiens (Human))	criterion met

Consider now this further compound.
Query string: Determine whether this compound shows IC50 PI3Ka lower than 100 nM (ties excluded): CCc1ncnc(N2CC[S+]([O-])CC2)c1C#Cc1ccc(N)nc1
Result string: criterion not met
